Assay name: BET inhibitor-based combinations targeting novel dependencies in MECOM-rearranged (r) AML: AML-194 cell line (AID 2202237; further: nearly all actives have a fitted effect of over 40% in size)
Condition details: AML-194 (MECOM-r AML) viability, CellTiter-Glo, 48 h; series mostly up to 46 µM
Results filed as inconclusive are left out. The source made the active and inactive calls. The call rests on the fitted dose curve; in most records, active means well fitted inhibition curve with a large enough effect; inconclusive means small, poorly fitted or top-dose-only effect; inactive means flat fitted curve, though single readings scatter.
# output must be one of active, inactive

Before answering, review these 5 worked examples.
# Compound, Category label
data = [
    ("CS(=O)(=O)c1ccc(C(=O)Nc2ccc(Cl)c(-c3ccccn3)c2)c(Cl)c1", "inactive"),
    ("N#CCNC(=O)c1ccc(-c2ccnc(Nc3ccc(N4CCOCC4)cc3)n2)cc1", "active"),
    ("O=c1[nH]c(=O)n(C2CCCO2)cc1F (stereo not given)", "inactive"),
    ("COc1ccc(/C=C/C(=O)Nc2ccccc2C(=O)O)cc1OC", "inactive"),
    ("CC(C)OC(=O)C1=CN(C(=O)c2ccc(F)c(F)c2)CC(C)(C)c2c1[nH]c1ccccc21", "inactive"),
]

[in] Which outcome was assigned to Cc1nnc(C(C)C)n1C1CC2CCC(C1)N2CC[C@H](NC(=O)C1CCC(F)(F)CC1)c1ccccc1 (stereo not given in full) in this test?
[out] inactive

[in] For `Fc1ccc(Cl)cc1-c1nc(Nc2ccncc2)c2nccnc2n1` then?
[out] inactive
